pIC50 by entry:
- SYSTEM NAME: human EphB4 (Homo sapiens, UniProt P54760)
- Construct: to generate full-length EphB4 containing a Myc-His tag at the C-terminus; EphB4-CHO)
- Sequence (P54760 16-987): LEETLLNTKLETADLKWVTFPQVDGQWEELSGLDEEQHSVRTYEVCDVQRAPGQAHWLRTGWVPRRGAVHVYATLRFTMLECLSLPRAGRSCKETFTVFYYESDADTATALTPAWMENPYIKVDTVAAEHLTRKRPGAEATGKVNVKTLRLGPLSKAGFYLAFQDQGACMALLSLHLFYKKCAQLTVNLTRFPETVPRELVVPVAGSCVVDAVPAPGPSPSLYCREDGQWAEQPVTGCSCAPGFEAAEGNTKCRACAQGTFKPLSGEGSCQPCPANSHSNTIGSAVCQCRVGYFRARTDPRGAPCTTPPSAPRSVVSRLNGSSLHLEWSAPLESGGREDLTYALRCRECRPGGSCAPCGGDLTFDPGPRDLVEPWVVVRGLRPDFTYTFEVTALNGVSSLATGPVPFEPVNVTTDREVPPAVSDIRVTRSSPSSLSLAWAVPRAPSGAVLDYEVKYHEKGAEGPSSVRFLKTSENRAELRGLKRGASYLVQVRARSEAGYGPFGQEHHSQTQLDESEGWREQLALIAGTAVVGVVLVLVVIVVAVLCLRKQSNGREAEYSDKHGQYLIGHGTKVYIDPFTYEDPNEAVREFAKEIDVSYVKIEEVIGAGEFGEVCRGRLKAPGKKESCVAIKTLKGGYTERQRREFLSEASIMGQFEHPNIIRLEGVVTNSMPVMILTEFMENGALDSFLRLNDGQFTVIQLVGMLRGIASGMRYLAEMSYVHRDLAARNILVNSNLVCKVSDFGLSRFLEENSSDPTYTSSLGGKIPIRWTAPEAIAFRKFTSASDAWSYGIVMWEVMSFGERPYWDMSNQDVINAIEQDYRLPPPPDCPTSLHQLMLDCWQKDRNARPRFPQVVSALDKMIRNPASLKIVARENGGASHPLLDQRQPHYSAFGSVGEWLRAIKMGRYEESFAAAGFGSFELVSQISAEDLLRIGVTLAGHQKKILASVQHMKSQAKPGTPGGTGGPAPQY
- ASSAY PROCEDURE: In vitro EphB4 cell assay (EphB4 phosphorylation ELISA in EphB4-CHO cells)
- EXPERIMENTAL PARAMETERS: ephrin-B2 stimulated EphB4 phosphorylation, read-out: Mean IC50 values obtained using Assay B
pIC50: −log10 of the molar value.
MEASUREMENT LABEL: pIC50

                                   molecule  measurement_label  observed_measurement
0  Cc1ccc(CO)cc1N(C)c1ccnc(Nc2cc(Cl)cc(N3CCOCC3)n2)n1 [Example 3]              pIC50                  7.55
1  CN(c1ccnc(Nc2cc(N3CCOCC3)nc(N3CCOCC3)c2)n1)c1ccc(F)c(Cl)c1F [Example 2.1]              pIC50                  8.10
2  CN(c1ccnc(Nc2cc(Cl)cc(N3CCOCC3)n2)n1)c1ccc(F)c(Cl)c1F [Example 1]              pIC50                  6.45
3  Cc1ccc(CO)cc1N(C)c1ccnc(Nc2cc(N3CCOCC3)cc(N3CCOCC3)n2)n1 [Example 4.2]              pIC50                  6.52

Origin of the recorded values: patent US20090036440A1
